Tested on: MDA-MB-435
Test: NCI tumour cell line growth inhibition, 48 h
Property: TGI; scope: individual compounds
Provide the reading as a plain figure in µM.

Worked cases, TGI given:
CN(C)CC1CCn2c(c(C3=C(c4cn(C)c5ccccc45)C(=O)NC3=O)c3ccccc32)C1 (stereo unspecified)
7.49
O=C1/C(=C/C(Cl)=C/c2ccccc2)SC(=S)N1CCc1ccc(O)cc1
4.27

Briefly, TGI measured for COC(=O)C#Cc1ccc([N+](=O)[O-])cc1 : 5.57

###

System: A549 NSCLC
Assay: NCI tumour cell line growth inhibition, 48 h
Property: TGI; scope: individual compounds

Worked cases, TGI given:
CC(=O)Nc1ccc(/C=C/C(=O)c2sc(C(N)=S)nc2C)cc1
> 100 µM
CCOC(=O)C1=C(C)N(NC(=O)c2ccccc2)C2(O)CCCC12C(=O)OCC (stereo not drawn)
> 100 µM
O=C(CCCN1CC=C(n2c(=O)[nH]c3ccccc32)CC1)c1cccs1
> 100 µM
COC(=O)C(=O)C(C(=O)C(=O)Nc1cc([N+](=O)[O-])ccc1[N+](=O)[O-])c1nc2ccc(C(=O)c3ccccc3)cc2[nH]c1=O (stereo not drawn)
> 100 µM

Attention now turns to another entry.
Briefly, TGI measured for COC(=O)c1c(C(=O)OC)c(C(c2ccccc2)c2ccccc2)n(-c2ccccc2)c1Cl : > 10 µM

###

System: NCI-H23 lung
Assay: NCI tumour cell line growth inhibition, 48 h; in the data active means GI50 below about 0.43 µM; inactive means the rest
Give one outcome, nothing more. List: YES = active, NO = inactive

Solved entries (count: 5):
CC/C(=C(\CC)c1ccc(OCCN(CC)CC)cc1)c1ccc(OCCN(CC)CC)cc1
NO
Cc1ccc(C(=O)NC2CCCCC2)cc1-c1ccc(C(=O)NCC2CC2)cc1
NO
COC(=O)Nc1nc2ccc(Oc3ccc(NC(=O)Nc4cccc(Cl)c4)cc3)cc2[nH]1
NO
O=C(/C=C\Sc1nccc(C(F)(F)F)n1)c1ccc(Br)cc1
NO
CCC[CH2][Sn]([CH2]CCC)([S]C1=NCCS1)[S]C1=NCCS1
YES

**Query** # outcome recorded in this test, key = CC(=O)OCC1OC(S[As](C)C)C(OC(C)=O)C1OC(C)=O (stereo unspecified)
**Result** NO

###

Test system: K-562 leukemia
Test: NCI tumour cell line growth inhibition, 48 h
REPORTED_ENDPOINT: TGI

Worked cases, TGI given:
O=S1c2ccc(Cl)cc2CC(SSC2Cc3cc(Cl)ccc3S(=O)c3ccccc32)c2ccccc21 (configuration not stated)
> 100 µM
Cc1c(CCl)c(=O)oc2c(C)c3occ(CCl)c(=O)c3cc12
23.6 µM
O=C(Nc1ccccc1)C(=O)C(C(=O)c1ccccc1)C(c1ccccc1)c1ccccc1 (configuration not stated)
> 10 µM

Briefly, TGI measured for CC1C(=O)N(C)C2(CO)C(=O)O[C@H](C)C12O (some centres not stated) : > 100 µM

Briefly, TGI measured for CCOC(=O)C1=C(C)N(NC(=O)c2ccccc2)C2(O)CCCC12C(=O)OCC (configuration not stated) : > 100 µM

Briefly, TGI measured for Cc1ccc(S(=O)(=O)n2cnc(CC(NC(=O)C3CCC(=O)N3C(=O)OCc3ccccc3)C(=O)N3CCCC3C(=O)NN)c2)cc1 (configuration not stated) : > 100 µM

Briefly, TGI measured for O=C(CCCN1CC=C(n2c(=O)[nH]c3ccccc32)CC1)c1cccs1 : > 100 µM
